Test system: CAKI-1
Test Protocol: NCI tumour cell line growth inhibition, 48 h
Active and inactive are the calls of the source. No stated cut-off is given here; in the data, active = GI50 up to about 1.1 µM and inactive = higher.
Metric: GI50

[[record]]
compound = "CCn1c2nc(=O)n(CCCCCCCCSC(c3ccccc3)(c3ccccc3)c3ccccc3)c(=O)c-2nc2ccccc21"
metric = "GI50"
reported_value = "5.22 µM (inactive)"

[[record]]
compound = "CC(C)(C)[Si](C)(C)O/N=C\\c1cccc(O[Si](C)(C)C(C)(C)C)c1"
metric = "GI50"
reported_value = "24.8 µM (inactive)"


State recorded GI50 for all listed compounds.
1. Cc1cccc2c1C(=O)[C@@](C)([C@]1(C)Nc3cccc(C)c3C1=O)N2
2. O=C1c2ccccc2C2(O)N(c3ccccc3)C(=S)N(c3ccccc3)C12O (stereo unspecified)
3. OCC(O)COc1c(Cl)cc(Cl)cc1Cl (stereo unspecified)
4. C#CCOc1c(C(=O)OCC)c(=O)n(C)c2ccccc12

**A:**
1. > 100 µM (inactive)
2. > 100 µM (inactive)
3. > 100 µM (inactive)
4. > 100 µM (inactive)

State recorded GI50 for all listed compounds.
1. O=C(O)[C@@H]1CCS(=O)(=O)N1
2. S=c1sc2sc(=S)sc2s1
3. O=c1c(C(c2ccc(-c3ccccc3)cc2)c2c(O)oc3ccccc3c2=O)c(O)oc2ccccc12
4. CC(C)(C)/C(O)=C\c1nc2ccc(C(F)(F)F)cc2[nH]c1=O
5. Cc1ccc2c(n1)C(=O)C=CC2=O

**A:**
> 100 µM (inactive)
> 100 µM (inactive)
19.9 µM (inactive)
> 100 µM (inactive)
2.02 µM (inactive)

###

Tested on: RPMI-8226
Test Protocol: NCI tumour cell line growth inhibition, 48 h
Active and inactive are the calls of the source. Cut-off read from the data, not from the text of the source: active = GI50 up to about 1.1 µM and inactive = higher.
Outcome (select one): y for active, n for inactive

[[record]]
compound = "O=C(N/N=C1\\CCc2ccccc2C1)N/N=C1\\CCc2ccccc2C1"
subject_of_test = "RPMI-8226"
class_name = "n"


**Q:** Which outcome was assigned to COc1ccc(/C=C2\CCC(CCN(C)C)(C3=CCCC3)C2=O)cc1 (configuration not stated) in this test?
**A:** n

**Q:** Which outcome was assigned to "O=C(CNc1ccc([N+](=O)[O-])cc1)Nn1c(-c2ccccc2)nc2ccccc2c1=O" in this test?
**A:** n

**Q:** Which outcome was assigned to CN(CCCCCl)P(=O)(OCc1ccc([N+](=O)[O-])o1)OCC1OC(n2ccc(N)nc2=O)C(O)C1O (configuration not stated) in this test?
**A:** n

**Q:** Which outcome was assigned to "COc1cc(/C=C/C(=O)N[C@@H]2C(=O)N3[C@@H]2SC(C)(C)[C@@H]3C(=O)O)ccc1O" in this test?
**A:** n

**Q:** Which outcome was assigned to N#C/C(=C1\OC(=N)C(c2ccccc2)C1=O)c1ccccc1 (configuration not stated) in this test?
**A:** n

**Q:** Which outcome was assigned to CC1(C)COC(c2ccc(C(F)(F)F)cc2C(O)c2ccc3ccccc3c2)=N1 (configuration not stated) in this test?
**A:** n

###

Field: GI50. Provide a value for each of the compounds that follow.
Test system: RPMI-8226
Test Protocol: NCI tumour cell line growth inhibition, 48 h
Activity calls are given as the source filed them. No stated cut-off is given here; in the data, active = GI50 up to about 1.1 µM and inactive = higher.

In the examples that follow, each entry is paired with its recorded GI50.
[[record]]
compound = "O=C1NC(=O)C2(CCc3ccc(N(CCCl)CCCl)cc32)N1 (centres undefined)"
reported_value = "19.7 µM (inactive)"

[[record]]
compound = "CCCCCCCCCCCCOCC(COP(=O)(O)OCCN=[N+]=[N-])OC(=O)CCCCCCCCCCC (centres undefined)"
reported_value = "> 100 µM (inactive)"

[[record]]
compound = "N#C/C(=C\\c1cc(O)c(O)c(O)c1)C(N)=O"
reported_value = "> 100 µM (inactive)"


State recorded GI50 for all listed compounds.
1. O=C(N/C(=C\c1cccc([N+](=O)[O-])c1)c1nc2c(O)nc(S)nc2[nH]1)c1ccccc1
2. O=C1CCSSCCC(=O)Nc2ccccc2N1
3. COc1cccc(C2c3cc4c(cc3OC(N3CCCCC3)C2C)OCO4)c1OC (centres undefined)
4. O=C(O)CC12C3C4C5C3C1C5C42 (centres undefined)
5. COC(=O)c1c(O)ccc2c1c1cc3ccccc3c(O)c1n2CCc1ccc(OC)c(OC)c1

**A:**
1: 97.1 µM (inactive); 2: > 100 µM (inactive); 3: 3.44 µM (inactive); 4: > 100 µM (inactive); 5: 18.9 µM (inactive)

**Q:** Reported GI50, compound "Brc1ccc(C2=NCSC(c3ccc(Br)cc3)=N2)cc1" : ____
**A:** 16.1 µM (inactive)

###

Tested on: LXFL 529
Test Protocol: NCI tumour cell line growth inhibition, 48 h
Where a name gives a salt, the structure may show the parent alone. Active and inactive are the calls of the source. No stated cut-off is given here; in the data, active = GI50 up to about 1.1 µM and inactive = higher. Non-standard residues stand in square brackets, D forms with d. Residues, ends and D or L forms follow the SMILES beside them. ξ: configuration not given here. *: point of attachment. X18 = COC1=CC(=O)N(C(=O)C(O*)C(C)C)C1Cc1ccccc1; ξNMe2Val = CC(C)C(C(=O)*)N(C)C; NMeV = CN[CH](C(=O)O)C(C)C
Outcome (select one): active, inactive

[[record]]
compound = "CC(=O)/C(=C\\c1ccco1)C(=O)Nc1ccccc1"
class_name = "inactive"

[[record]]
compound = "CC(SC1=CC(=O)c2c(Cl)ccc(O)c2C1=O)C(=O)O (stereo not given)"
class_name = "inactive"

[[record]]
compound = "Clc1cccc(N2CCN(CCN3CCc4c([nH]c5ccccc45)C3c3cccnc3)CC2)c1 (stereo not given)"
class_name = "inactive"


**Q:** Which outcome was assigned to COC1=CC(=O)N(C(=O)C(OC(=O)C2CCCN2C(=O)C2CCCN2C(=O)C(C(C)C)N(C)C(=O)C(NC(=O)C(C(C)C)N(C)C)C(C)C)C(C)C)C1Cc1ccccc1 (stereo not given) (ξNMe2Val-V[NMeV]PP-X18; configuration not given here) in this test?
**A:** active

**Q:** Which outcome was assigned to CC(=O)N(O)CCCCCNC(=O)CCC(=O)N(O)CCCCCNC(=O)CCC(=O)N(O)CCCCCN [DEFEROXAMINE HYDROCHLORIDE] in this test?
**A:** inactive

###

Test system: Hs-578T
Test Protocol: NCI tumour cell line growth inhibition, 48 h
Active and inactive are the calls of the source. Cut-off read from the data, not from the text of the source: active = GI50 up to about 1.1 µM and inactive = higher.
Metric: GI50

[[record]]
compound = "N=C(N)C(/N=N\\c1ccccc1)C(N)=O (stereo not drawn)"
metric = "GI50"
reported_value = "> 100 µM (inactive)"


State recorded GI50 for all listed compounds.
1. CC(=O)C1=CC=C/C1=N\Nc1ccccc1
2. CC(=O)c1ccc(/N=N/c2ccc3nonc3c2N)cc1

**A:**
["4.48 µM (inactive)", "> 100 µM (inactive)"]

###

Test system: OVCAR-3
Test Protocol: NCI tumour cell line growth inhibition, 48 h
Activity calls are given as the source filed them. Cut-off read from the data, not from the text of the source: active = GI50 up to about 1.1 µM and inactive = higher.
Metric: GI50

[[record]]
compound = "O=C(O)c1ccccc1C(=O)c1ccc2c(c1)Cc1ccccc1-2"
reported_value = "> 100 µM (inactive)"

[[record]]
compound = "CC(=O)Oc1ccc(OC(Oc2ccccc2)c2ccccc2)cc1 (stereo unspecified)"
reported_value = "21.2 µM (inactive)"

[[record]]
compound = "[O-][S+](Cc1ccccc1)c1ccccc1Cn1cccc1 (stereo unspecified)"
reported_value = "> 100 µM (inactive)"

[[record]]
compound = "COc1ccc(CCN2CCN(CCc3ccc(OC)cc3)CC2)cc1"
reported_value = "> 100 µM (inactive)"

[[record]]
compound = "COC1=C(OC)CCC(/C(C#N)=C/c2ccc(OC)c(OC)c2)=C1"
reported_value = "> 100 µM (inactive)"


Next item in the queue.
**Q:** # query: GI50 | item "Cc1ccccc1NC(=O)C(=O)CC(=O)c1sc(-n2nc(-c3ccccc3)cc2-c2ccccc2)nc1C" | system: OVCAR-3
**A:** > 100 µM (inactive)

###

Field: GI50. Provide a value for each of the molecules that follow.
Tested on: OVCAR-8
Test Protocol: NCI tumour cell line growth inhibition, 48 h
Activity calls are given as the source filed them. Cut-off read from the data, not from the text of the source: active = GI50 up to about 1.1 µM and inactive = higher.

In the examples that follow, each entry is paired with its recorded GI50.
[[record]]
molecule = "COC(NC(N)=O)C(=O)O (stereo not given)"
subject_of_test = "OVCAR-8"
reported_value = "> 100 µM (inactive)"

[[record]]
molecule = "O=C(c1ccccc1)N1C(=O)N(c2ccccc2)C(=N/c2ccccc2)/C1=N\\c1ccccc1"
subject_of_test = "OVCAR-8"
reported_value = "> 100 µM (inactive)"

[[record]]
molecule = "CO[C@@H]1C=C[C@@]23c4cc5c(cc4CN(C[C@@H]2O)[C@H]3C1)OCO5 [(+)-HAEMANTHAMINE]"
subject_of_test = "OVCAR-8"
reported_value = "27.9 µM (inactive)"

[[record]]
molecule = "[O-][S+]1CC[S+]([O-])CC[S+]([O-])CC1 (stereo not given)"
subject_of_test = "OVCAR-8"
reported_value = "> 100 µM (inactive)"

[[record]]
molecule = "C=CCC1C(O[Si](C)(C)C(C)(C)C)C(CO[Si](C)(C)C(C)(C)C)OC1n1ccc(=O)[nH]c1=O (stereo not given)"
subject_of_test = "OVCAR-8"
reported_value = "1.7 µM (inactive)"


State recorded GI50 for all listed molecules.
1. COC1=C(OC)CCC(/C(C#N)=C/c2ccc(OC)c(OC)c2)=C1
2. O=C1C[C@@H](c2ccccc2)O[C@@H](c2ccccc2)C1
3. O=C(CNc1ccc([N+](=O)[O-])cc1)Nn1c(-c2ccccc2)nc2ccccc2c1=O
4. NCCCNOCCCN
5. CN/C(=N\CCSCc1nc[nH]c1C)NC#N

**A:**
1. > 100 µM (inactive)
2. > 100 µM (inactive)
3. 4.24 µM (inactive)
4. > 100 µM (inactive)
5. > 100 µM (inactive)
